# System: CAF#4 (primary prostate cancer-associated fibroblasts of iCAF-like type)
# test_protocol: drug sensitivity score (DSS2, normalised partial AUC of dose-response, 72 h CellTiter-Glo viability) (DSS (dimensionless)); higher = more sensitive (stronger growth inhibition / cytotoxicity); extreme values may be limits of the assay
quantity_kind: drug sensitivity score

1. CC(C)NC(=O)COc1cccc(-c2nc(Nc3ccc4[nH]ncc4c3)c3ccccc3n2)c1 [KD025] (tested concentration range 0.5-5000 nM) :: 0.1
2. Cc1cn(-c2cc(NC(=O)c3ccc(C)c(Nc4nccc(-c5cnccn5)n4)c3)cc(C(F)(F)F)c2)cn1 [Radotinib] (tested concentration range 1-10000 nM) :: 0.1
3. CN1CCN(c2cc(C(=O)Nc3ccc4c(c3)-c3c(c(C(N)=O)nn3-c3ccc(F)cc3)CC4)c(Cl)cn2)CC1 [PHA 408] (tested concentration range 1-10000 nM) :: 4.2

----------
# Tested on: CAF#2 (primary prostate cancer-associated fibroblasts of iCAF-like type)
# test_protocol: drug sensitivity score (DSS2, normalised partial AUC of dose-response, 72 h CellTiter-Glo viability) (DSS (dimensionless)); higher = more sensitive (stronger growth inhibition / cytotoxicity); extreme values may be limits of the assay
quantity_kind: drug sensitivity score

1. CNc1nc(Nc2cn(C(C)(C)C#N)nc2C)ncc1C(F)(F)F [GNE-0877] (tested concentration range 0.1-1000 nM) :: 0
2. CCN(c1cc(-c2ccc(CN3CCOCC3)cc2)cc(C(=O)NCc2c(C)cc(C)[nH]c2=O)c1C)C1CCOCC1 [Tazemetostat] (tested concentration range 1-10000 nM) :: 1.8
3. CCS(=O)(=O)N1CC(CC#N)(n2cc(-c3ncnc4[nH]ccc34)cn2)C1 [Baricitinib] (tested concentration range 0.2-2500 nM) :: 0
4. CC1=C(/C=C/C(C)=C/C=C/C(C)=C/C(=O)O)C(C)(C)CCC1 [Tretinoin] (tested concentration range 1-10000 nM) :: 5
5. Cc1ccccc1CN1C(=O)C2=C(CCN(Cc3ccccc3)C2)N2CCN=C12 [ONC201] (tested concentration range 2.5-25000 nM) :: 6.2
6. C[C@@H]1CN(C(=O)c2ccc(NC(=O)c3cc(O[C@H](C)c4c(Cl)ccc(F)c4Cl)c(N)nn3)cc2)C[C@H](C)N1 [Ensartinib] (tested concentration range 0.1-1000 nM) :: 3.1
7. CC1(C)CCC(c2ccc(Cl)cc2)=C(CN2CCN(c3ccc(C(=O)NS(=O)(=O)c4ccc(N[C@H](CCN5CCOCC5)CSc5ccccc5)c(S(=O)(=O)C(F)(F)F)c4)cc3)CC2)C1 [Navitoclax] (tested concentration range 1-10000 nM) :: 0
8. CCN(CC)CCN(Cc1ccc(-c2ccc(C(F)(F)F)cc2)cc1)C(=O)Cn1c(SCc2ccc(F)cc2)nc(=O)c2c1CCC2 [Darapladib] (tested concentration range 0.1-1000 nM) :: 0
9. Cc1ccc(-c2cc(C(F)(F)F)nn2-c2ccc(S(N)(=O)=O)cc2)cc1 [Celecoxib] (tested concentration range 1-10000 nM) :: 0
10. CCNC(=O)C[C@@H]1N=C(c2ccc(Cl)cc2)c2cc(OC)ccc2-n2c(C)nnc21 [Molibresib] (tested concentration range 1-10000 nM) :: 5.1
11. C#Cc1cccc(Nc2ncnc3cc4c(cc23)OCCOCCOCCO4)c1 [Icotinib] (tested concentration range 1-10000 nM) :: 0

----------
# System: CAF#3 (primary prostate cancer-associated fibroblasts of myCAF-like type)
# test_protocol: drug sensitivity score (DSS2, normalised partial AUC of dose-response, 72 h CellTiter-Glo viability) (DSS (dimensionless)); higher = more sensitive (stronger growth inhibition / cytotoxicity); extreme values may be limits of the assay
quantity_kind: drug sensitivity score

1. Cc1cc(F)c(C(=O)Nc2cccc(-c3nncn3C(C)C)n2)cc1-n1cnc(C2CC2)c1 [Selonsertib] (tested concentration range 0.1-1000 nM) :: 0
2. COc1cc2ncnc(Nc3ccc(F)c(Cl)c3)c2cc1OCCCN1CCOCC1 [Gefitinib] (tested concentration range 1-10000 nM) :: 0.2
3. O=C(O)C(=O)O.[NH-][C@@H]1CCCC[C@H]1[NH-].[Pt+2] [Oxaliplatin] (tested concentration range 10-100000 nM) :: 8.3

----------
# Test system: CAF#2
# test_protocol: drug sensitivity score (DSS2, normalised partial AUC of dose-response, 72 h CellTiter-Glo viability) (DSS (dimensionless)); higher = more sensitive (stronger growth inhibition / cytotoxicity); extreme values may be limits of the assay
Please note: fulfilled applies when drug sensitivity score is 2 or greater, and not fulfilled applies otherwise.

1. Cc1cn(-c2cc(NC(=O)c3ccc(C)c(Nc4nccc(-c5cccnc5)n4)c3)cc(C(F)(F)F)c2)cn1 [Nilotinib] (tested concentration range 1-10000 nM) :: not fulfilled
2. C#Cc1cccc(Nc2ncnc3cc(OCCOC)c(OCCOC)cc23)c1 [Erlotinib] (tested concentration range 1-10000 nM) :: fulfilled
3. CC#CC(=O)N1CCC[C@H]1c1nc(-c2ccc(C(=O)Nc3ccccn3)cc2)c2c(N)nccn12 [Acalabrutinib] (tested concentration range 0.1-1000 nM) :: not fulfilled
4. Clc1ccccc1C(c1ccccc1)(c1ccccc1)n1cccn1 [TRAM-34] (tested concentration range 0.1-1000 nM) :: not fulfilled
5. CC(C)n1cnc2c(NCCc3ccc(O)cc3)nc(-c3csc4ccccc34)nc21 [StemRegenin 1] (tested concentration range 1-10000 nM) :: not fulfilled
6. COc1cc(Nc2ncc(F)c(Nc3ccc4c(n3)NC(=O)C(C)(C)O4)n2)cc(OC)c1OC [Tamatinib] (tested concentration range 1-10000 nM) :: fulfilled
7. N#Cc1ccnc(N2C(=O)CC[C@H]2C(=O)N(c2cncc(F)c2)[C@H](C(=O)NC2CC(F)(F)C2)c2ccccc2Cl)c1 [Ivosidenib] (tested concentration range 1-10000 nM) :: not fulfilled
8. Cn1cnc2c(F)c(Nc3ccc(Br)cc3Cl)c(C(=O)NOCCO)cc21 [Selumetinib] (tested concentration range 1-10000 nM) :: fulfilled
9. C=C1C[C@@H]2[C@H](CC[C@]3(C)C(=O)CC[C@@H]23)[C@@]2(C)C=CC(=O)C=C12 [Exemestane] (tested concentration range 1-10000 nM) :: not fulfilled
10. CN[C@@H](C)C(=O)N[C@H](C(=O)N1CCC[C@H]1c1nc(C(=O)c2ccc(F)cc2)cs1)C1CCCCC1 [NVP-LCL161] (tested concentration range 2.5-25000 nM) :: not fulfilled
11. CO[C@@H](C)Cn1c(=O)n(C)c2cnc3ccc(-c4cncc(C(C)(C)O)c4)cc3c21 (tested concentration range 0.2-2500 nM) :: fulfilled
12. COCCNCc1ccc(-c2cc3nccc(Oc4ccc(NC(=O)C5(C(=O)Nc6ccc(F)cc6)CC5)cc4F)c3s2)nc1 [Sitravatinib] (tested concentration range 0.2-2500 nM) :: fulfilled
13. CNC(=O)c1cc(Oc2ccc(NC(=O)Nc3ccc(Cl)c(C(F)(F)F)c3)cc2)ccn1 [Sorafenib] (tested concentration range 0.1-1000 nM) :: not fulfilled
14. CS(=O)(=O)N1CCN(Cc2cc3nc(-c4cccc5[nH]ncc45)nc(N4CCOCC4)c3s2)CC1 [Pictilisib] (tested concentration range 1-10000 nM) :: fulfilled
15. NC(=O)N1CCC(CC(=O)N2CCC([C@H]3c4ncc(Br)cc4CCc4cc(Cl)cc(Br)c43)CC2)CC1 [Lonafarnib] (tested concentration range 5-50000 nM) :: fulfilled
16. Nc1nc2[nH]cnc2c(=S)[nH]1 [Thioguanine] (tested concentration range 1-10000 nM) :: fulfilled
17. Cc1ccc(C(=O)Nc2cccc(C(F)(F)F)c2)cc1Nc1nc(-c2cccnc2)nc2c1cnn2C [NVP-BHG712] (tested concentration range 1-10000 nM) :: fulfilled
18. NS(=O)(=O)OC[C@@H]1C[C@@H](n2ccc3c(N[C@H]4CCc5ccccc54)ncnc32)C[C@@H]1O [Pevonedistat] (tested concentration range 1-10000 nM) :: fulfilled
19. CCC(C)n1ncn(-c2ccc(N3CCN(c4ccc(OCC5COC(Cn6cncn6)(c6ccc(Cl)cc6Cl)O5)cc4)CC3)cc2)c1=O (configuration not stated) [Itraconazole] (tested concentration range 0.5-5000 nM) :: not fulfilled
20. C[C@H]1Oc2cc(cnc2N)-c2c(nn(C)c2C#N)CN(C)C(=O)c2ccc(F)cc21 [Lorlatinib] (tested concentration range 0.1-1000 nM) :: fulfilled
21. COc1cccc2c1c(O)c(C(=O)N(C)c1ccc(C(F)(F)F)cc1)c(=O)n2C [Tasquinimod] (tested concentration range 1-10000 nM) :: fulfilled
22. COc1cccc2c1C(=O)c1c(O)c3c(c(O)c1C2=O)C[C@@](O)(C(=O)CO)C[C@@H]3O[C@H]1C[C@H](N)[C@@H](O)[C@H](C)O1 [Epirubicin] (tested concentration range 0.1-1000 nM) :: fulfilled

----------
# Tested on: CAF#3
# test_protocol: drug sensitivity score (DSS2, normalised partial AUC of dose-response, 72 h CellTiter-Glo viability) (DSS (dimensionless)); higher = more sensitive (stronger growth inhibition / cytotoxicity); extreme values may be limits of the assay
quantity_kind: drug sensitivity score

1. C=CC(=O)N1CCC[C@@H](n2nc(-c3ccc(Oc4ccccc4)cc3)c3c(N)ncnc32)C1 [Ibrutinib] (tested concentration range 0.1-1000 nM) :: 0.2
2. COc1cc2ncnc(Nc3ccc(F)c(Cl)c3)c2cc1NC(=O)/C=C/CN1CCCCC1 [Dacomitinib] (tested concentration range 0.1-1000 nM) :: 0.6
3. Cc1nc(Nc2ncc(C(=O)Nc3c(C)cccc3Cl)s2)cc(N2CCN(CCO)CC2)n1 [Dasatinib] (tested concentration range 0.1-1000 nM) :: 13.7
4. N#CC[C@H](C1CCCC1)n1cc(-c2ncnc3[nH]ccc23)cn1 [Ruxolitinib] (tested concentration range 1-10000 nM) :: 0
